Experiment: solvent given as SMILES
Details: in CO
Reported log10 fluorescence lifetime values are given for each entry in this list.
A value of 2 here means fluorescence lifetime of 100 in ns, since values are log10.

Example results:
compound	recorded-metric	reported-measurement
NS(=O)(=O)c1ccc(N2N=C(c3ccc(O)cc3)CC2c2ccc(Br)cc2)cc1 (stereo not given)	log10 fluorescence lifetime	0.22
CSc1sc(C(C)=O)c2nn[nH]c(=O)c12	log10 fluorescence lifetime	-0.48
Cc1ccc(C2=C3C=CC(Cl)=[N+]3[B-](F)(F)n3c(Cl)ccc32)cc1	log10 fluorescence lifetime	0.27

Given the entry `COc1cc(/C=C2/SC(=O)NC2=O)ccc1O` , report its measured log10 fluorescence lifetime. -0.60

Given the entry `COc1c2ccccc2c(OC)c2c1c1c(C)ccc(OC)c1n2C` , report its measured log10 fluorescence lifetime. 1.33

Given the entry `CN(C)c1ccc(/C=C2\CC/C(=C\c3ccc(C#N)cc3)C2=O)cc1` , report its measured log10 fluorescence lifetime. -0.89

Given the entry `CC[n+]1c(C=C2C(=O)C(C=C3Sc4cc(Cl)ccc4N3C)=C2[O-])[se]c2ccccc21` , report its measured log10 fluorescence lifetime. -0.08

Given the entry `Cc1ccccc1C1=C2C=c3c(oc4ccc(F)cc34)=[N+]2[B-](F)(F)n2c1cc1c3cc(F)ccc3oc12` , report its measured log10 fluorescence lifetime. 0.63

Given the entry `NNC(=O)NNN1C(=O)c2cc(S(=O)(=O)[O-])cc3c(N)c(S(=O)(=O)[O-])cc(c23)C1=O` , report its measured log10 fluorescence lifetime. 0.98

Given the entry `CNCCCC1c2ccccc2C=Cc2ccccc21` , report its measured log10 fluorescence lifetime. 0.38

====

Test: solvent given as SMILES
Details: in ClCCl
fluorescence lifetime vs 7 ns: at or above is True, below is False.

Example cases with answers are listed next.
smiles-code	assigned-label
C#Cc1ccc2ccc3cccc4ccc1c2c34	True
c1ccc(N(c2ccccc2)c2ccc(-c3ccc4c(c3)C3(c5ccccc5Sc5ccccc53)c3cc(-c5ccc(N(c6ccccc6)c6ccccc6)cc5)ccc3-4)cc2)cc1	False
Cc1ccc(N(c2ccc(C)cc2)c2ccc3c4cccc5c(N(c6ccc(C)cc6)c6ccc(C)cc6)ccc(c6cccc2c63)c54)cc1	False
CC(C)[Si]1(C(C)C)c2cc(C=C(C#N)C#N)ccc2-c2ccc(N(C)C)cc21	False
CC(C)(C)c1ccc2c(c1)sc1[n+]2[B-](F)(F)n2c(c3cccc4c(Br)ccc2c43)=N1	False

Query compound follows.
Could you verify whether the entry `CC(C)(C)c1ccc(-c2c3cccc4c(-c5ccccc5)cc5c(-c6ccc(C(C)(C)C)cc6)c6cccc7c(-c8ccccc8)cc2c(c76)c5c43)cc1` shows fluorescence lifetime of no less than 7 ns? False

====

Experiment: solvent given as SMILES
Details: in ClCCl
recorded-metric: fluorescence lifetime (ns)
Provide only the numeric value, understood in ns.

Example results:
smiles-code	fluorescence lifetime / ns
c1cc2ccc3ccc(OP4(Oc5ccc6ccc7cccc8ccc5c6c78)=NP(Oc5ccc6ccc7cccc8ccc5c6c78)(Oc5ccc6ccc7cccc8ccc5c6c78)=NP(Oc5ccc6ccc7cccc8ccc5c6c78)(Oc5ccc6ccc7cccc8ccc5c6c78)=N4)c4ccc(c1)c2c34	2.5
CN(C)c1ccc(-c2nc3c(c4c2-c2ccc(C#N)cc2CC4)-c2ccc(C#N)cc2CC3)cc1	1.68
Nc1nc2ccc(Br)cc2s1	1.37

Given the entry `CCN(CC)c1ccc(/N=N/c2nc3ccc([N+](=O)[O-])cc3s2)cc1` , report its measured fluorescence lifetime. 8.14

Given the entry `O=C1C(=c2c(=O)c3c4ccccc4cc4cc5ccccc5c2c43)C(=O)c2ccccc21` , report its measured fluorescence lifetime. 8.7

Given the entry `COC(=O)c1[nH]c(-c2ccccc2)c2nnc3ccc(OC)cc3c12` , report its measured fluorescence lifetime. 2.23

Given the entry `CCCCn1c(-c2ccc(-c3nnc(-c4cccs4)o3)cc2)nc(-c2ccccc2)c1-c1ccccc1` , report its measured fluorescence lifetime. 1.65

Given the entry `CCCCCCCCCCCCN1C(=O)c2c(c3ccc4cc(-c5ccc(OC)cc5)c(OC)cc4c3c3c2ccc2cc(-c4ccc(OC)cc4)c(OC)cc23)C1=O` , report its measured fluorescence lifetime. 6.44

Given the entry `CCN(CC)c1ccc2cc3c([o+]c2c1)/C(=C/Nc1ccccc1)CCC3` , report its measured fluorescence lifetime. 4.97

Given the entry `COc1ccc2c(c1)CCC1=C(C#Cc3cc4ccccc4c4ccccc34)O[B-](F)(F)[O+]=C12` , report its measured fluorescence lifetime. 1.33

Given the entry `Cc1ccc(-c2cc(/C=C/c3ccc(N(c4ccccc4)c4ccccc4)cc3)c(-c3ccc(C)cc3)cc2/C=C/c2ccc(N(c3ccccc3)c3ccccc3)cc2)cc1` , report its measured fluorescence lifetime. 1.34

Given the entry `CCCCCCCCCCCCN1C(=O)c2c(c3ccc4cc(-c5ccc(N(C)C)cc5)c(OC)cc4c3c3c2ccc2cc(-c4ccc(N(C)C)cc4)c(OC)cc23)C1=O` , report its measured fluorescence lifetime. 5.85

Given the entry `O=Cc1ccc(C2=C3C=c4c(oc5ccccc45)=[N+]3[B-](F)(F)n3c2cc2c4ccccc4oc23)cc1` , report its measured fluorescence lifetime. 2.49

Given the entry `COc1ccc2nc(/N=N/c3ccc(N(C)C)cc3)sc2c1` , report its measured fluorescence lifetime. 4.98

Given the entry `CCN1/C(=C\c2c(-c3ccc(N(C)C)cc3)c(=O)c2=O)C=Cc2ccccc21` , report its measured fluorescence lifetime. 0.1

Given the entry `CC(C)(C)c1ccc2c(c1)c1cc(C(C)(C)C)ccc1n2-c1ccc(C#Cc2ccccc2)cc1` , report its measured fluorescence lifetime. 3.91

Given the entry `CCN(CC)c1ccc2cc(/C=C/C(=C(C#N)C#N)c3ccc4c(c3)c3ccccc3n4CC)c(=O)oc2c1` , report its measured fluorescence lifetime. 3.32

====

Assay: solvent given as SMILES
Details: in Cc1ccccc1C
recorded-metric: fluorescence lifetime (ns)
Provide only the numeric value, understood in ns.

Example results:
compound	fluorescence lifetime, ns
COC(=O)C(Cc1ccc2oc(-c3ccc(N(C)c4ccccc4)cc3)nc2c1)NC(=O)OC(C)(C)C (centres undefined)	2.7
COC(=O)C(Cc1ccc2oc(-c3ccc4c(c3)c3ccccc3n4-c3ccccc3)nc2c1)NC(=O)OC(C)(C)C (centres undefined)	1.76

Given the entry COC(=O)C(Cc1ccc2oc(-c3ccc(N(C)C)cc3)nc2c1)NC(=O)OC(C)(C)C (centres undefined) , report its measured fluorescence lifetime. 1.07

Given the entry COC(=O)C(Cc1ccc2oc(-c3ccc(Nc4ccccc4)cc3)nc2c1)NC(=O)OC(C)(C)C (centres undefined) , report its measured fluorescence lifetime. 1.35

====

Experiment: solvent given as SMILES
Conditions: in c1ccc2c(c1)c1ccccc1n2-c1ccc(-c2ccc(-n3c4ccccc4c4ccccc43)cc2)cc1
Reported fluorescence lifetime values are given for each entry in this list.
Provide only the numeric value, understood in ns.

smiles-code	unit-abbrev	reported-measurement
CC1(C)c2ccccc2N(c2ccc(-c3ccc4c(c3)C(=O)c3ccc(-c5ccc(N6c7ccccc7C(C)(C)c7ccccc76)cc5)cc3C4=O)cc2)c2ccccc21	ns	41
CC(C)(C)c1ccc2c(c1)c1cc(C(C)(C)C)ccc1n2-c1ccc2c(c1)C(=O)c1ccc(-n3c4ccc(C(C)(C)C)cc4c4cc(C(C)(C)C)ccc43)cc1C2=O	ns	10.4
O=C1c2ccc(-c3ccc(N(c4ccc(-c5ccccc5)cc4)c4ccc(-c5ccccc5)cc4)cc3)cc2C(=O)c2ccc(-c3ccc(N(c4ccc(-c5ccccc5)cc4)c4ccc(-c5ccccc5)cc4)cc3)cc21	ns	10.2
C(=C\c1ccc(-n2c3ccccc3c3ccccc32)cc1)/c1ccc(-c2ccc(/C=C/c3ccc(-n4c5ccccc5c5ccccc54)cc3)cc2)cc1	ns	1.3
CCCCCCN1C(=O)C(c2ccc(-n3c4ccccc4c4ccccc43)cc2)=C(c2ccc(-n3c4ccccc4c4ccccc43)cc2)C1=O	ns	4
O=C1c2ccc(N(c3ccccc3)c3ccccc3)cc2C(=O)c2ccc(N(c3ccccc3)c3ccccc3)cc21	ns	4.9

Given the entry `N#Cc1cc(N2c3ccccc3Oc3ccccc32)c(N2c3ccccc3Oc3ccccc32)cc1C#N` , report its measured fluorescence lifetime. 20

Given the entry `O=P1(c2ccccc2)c2ccc(N3c4ccccc4Sc4ccccc43)cc2-c2cc(N3c4ccccc4Sc4ccccc43)ccc21` , report its measured fluorescence lifetime. 26

Given the entry `N#Cc1cc(N2c3ccccc3Sc3ccccc32)c(N2c3ccccc3Sc3ccccc32)cc1C#N` , report its measured fluorescence lifetime. 48.2

Given the entry `CCCCCCN1C(=O)c2cc(-c3ccc(-n4c5ccccc5c5ccccc54)cc3)c(-c3ccc(-n4c5ccccc5c5ccccc54)cc3)cc2C1=O` , report its measured fluorescence lifetime. 10

====

Test: solvent given as SMILES
Details: in CC(C)=O
Reported fluorescence lifetime values are given for each entry in this list.
Provide only the numeric value, understood in ns.

smiles-code	fluorescence lifetime, ns
CC1(C)C(/C=C/C2=C(Cl)C(=C/C=C3/N(CCCCS(=O)(=O)[O-])c4ccc5ccccc5c4C3(C)C)/CCC2)=[N+](CCCCS(=O)(=O)[O-])c2ccc3ccccc3c21	0.43

Given the entry `COC(=O)/C=C/c1ccc2ccc3cccc4ccc1c2c34` , report its measured fluorescence lifetime. 2.6

Given the entry `COc1cnc(-c2cc[n+](C3=C(F)C(F)(F)C(F)(F)[C-]3F)cc2)s1` , report its measured fluorescence lifetime. 2.3

Given the entry `CCC1=C(C)C2=Cc3c(I)c(I)c(I)n3[B-](F)(F)[N+]2=C1C` , report its measured fluorescence lifetime. 0.198
